# subject of test: T1, FAM-tagged two-repeat S5-phosphorylated CTD peptide
# T1 chain: YSPTSPSYSPTSPS
# measurement notes: fluorescence anisotropy (FA)
# experimental setup: chain shown with the change; read at the highest titration point, Seb1-CID 500 µM; parent: est. 77; read off a plot
Consider the following binders; for each one, report its response.
// keep it numeric: no unit symbol after the value

# binder Seb1-CID(1-152), Q9UTE3 K124E (protein) MSGIAEFDGILDSLEHSKTGISGSKILKLTNLSMENVSENAQFVASVYKYAKRAPVTHKLGALYILDSIVRSFQDGAKKNNESFENPVDASFSGGWCKAAEITDSLVADAIQHAPSAHLPKILELCDIWEKASTFPPEKLESLRSKLKDAMA ; its response = 58

# binder Seb1-CID(1-152), Q9UTE3 K121E (protein) MSGIAEFDGILDSLEHSKTGISGSKILKLTNLSMENVSENAQFVASVYKYAKRAPVTHKLGALYILDSIVRSFQDGAKKNNESFENPVDASFSGGWCKAAEITDSLVADAIQHAPSAHLPEILKLCDIWEKASTFPPEKLESLRSKLKDAMA ; its response = 47

# binder Seb1-CID(1-152), Q9UTE3 S22D; K25E; K124E (protein) MSGIAEFDGILDSLEHSKTGIDGSEILKLTNLSMENVSENAQFVASVYKYAKRAPVTHKLGALYILDSIVRSFQDGAKKNNESFENPVDASFSGGWCKAAEITDSLVADAIQHAPSAHLPKILELCDIWEKASTFPPEKLESLRSKLKDAMA ; its response = 27
